Test system: LNCaP C4-2B
Assay: Cytotoxicity against human C42B cells
Assay type: functional, cell-based
Recorded IC50, one value per entry.
Quick reminder: number only, in µM, skip the unit.

Use the examples below as a reference point.
[[record]]
structure = "CC[C@@H](/C=C/C(=O)[C@@H](C)[C@H](O)[C@H](C)[C@H]1OC(=O)/C=C/C=C/[C@H](C)[C@@H]([C@@H](C)[C@@H](O)[C@H](C)C(=O)/C=C/[C@H](CC)[C@@H](C)O)OC(=O)/C=C/C=C/[C@@H]1C)[C@@H](C)O"
reported_measurement = 25

[[record]]
structure = "CO[C@H]1C[C@H](C)Cc2cc(O)cc(c2)NC(=O)/C(C)=C/CC[C@H](OC)[C@@H](OC(N)=O)/C(C)=C/[C@H](C)[C@H]1O"
reported_measurement = 32


Kindly review the next compound as well.
Recorded IC50 of `CO[C@H]1/C=C\C=C(/C)C(=O)NC2=CC(=O)C(O)=C(C[C@@H](C)C[C@H](OC)[C@H](O)[C@@H](C)/C=C(\C)[C@@H]1OC(N)=O)C2=O` , please.
11

* * *

Here the recorded IC50 is given for each entry.
Tested on: LNCaP C4-2B
Assay: Cytotoxicity against human C42B cells
Assay type: functional, cell-based
All answers are understood in µM, so give the number only.

Solved cases (3 shown):
[[record]]
structure = "COC1=C2C[C@@H](C)C[C@H](OC)[C@H](O)[C@@H](C)/C=C(\\C)[C@H](OC(N)=O)[C@@H](OC)/C=C\\C=C(/C)C(=O)NC(=CC1=O)C2=O"
target_desc = "LNCaP C4-2B"
reading_unit = "µM"
reported_measurement = 0.5

[[record]]
structure = "COC[C@]1(CCC(C)=C(C)C)Nc2ccc(C(=O)NC3=C(O)CCC3=O)cc2C[C@@H]1Cl"
target_desc = "LNCaP C4-2B"
reading_unit = "µM"
reported_measurement = 0.067

[[record]]
structure = "COC1=C2C[C@@H](C)C[C@H](OC)[C@H](O)[C@@H](C)/C=C(\\C)[C@H](OC(N)=O)[C@@H](OC)/C=C\\C=C(/C)C(=O)NC(=C(SC)C1=O)C2=O"
target_desc = "LNCaP C4-2B"
reading_unit = "µM"
reported_measurement = 3.6


Proceed to the following item.
Endpoint output: IC50 of `CC[C@@H]1[C@@H](C)O[C@@](OC)(/C(C)=C/[C@H](C)[C@H]2OC(=O)/C=C/C=C/[C@H](C)[C@@H]([C@@H](C)/C=C(\C)[C@@]3(OC)C[C@@H](OC)[C@H](CC)[C@@H](C)O3)OC(=O)/C=C/C=C/[C@@H]2C)C[C@H]1OC` . Value?
14

* * *

Measured IC50 accompanies every entry in the list below.
System: NCI-H446
Test: Cytotoxicity against human H446 cells
Assay type: functional, cell-based
Respond with the bare value in µM.

Past entries and their recorded results:
[[record]]
structure = "CC[C@@H](/C=C/C(=O)[C@@H](C)[C@H](O)[C@H](C)[C@H]1OC(=O)/C=C/C=C/[C@H](C)[C@@H]([C@@H](C)[C@@H](O)[C@H](C)C(=O)/C=C/[C@H](CC)[C@@H](C)O)OC(=O)/C=C/C=C/[C@@H]1C)[C@@H](C)O"
reported_measurement = 25

[[record]]
structure = "COC(=O)[C@@]1(O)C(OC)=C2C[C@@H](C)C[C@H](OC)[C@H](O)[C@@H](C)/C=C(\\C)[C@H](OC(N)=O)[C@@H](OC)/C=C\\C=C(/C)C(=O)N[C@@H]1C2=O"
reported_measurement = 2.9

[[record]]
structure = "CC[C@@H]1[C@@H](C)O[C@@](OC)(/C(C)=C/[C@H](C)[C@H]2OC(=O)/C=C/C=C/[C@H](C)[C@@H]([C@@H](C)/C=C(\\C)[C@@]3(OC)C[C@@H](OC)[C@H](CC)[C@@H](C)O3)OC(=O)/C=C/C=C/[C@@H]2C)C[C@H]1OC"
reported_measurement = 25

[[record]]
structure = "COC1=C2C[C@@H](C)C[C@H](OC)[C@H](O)[C@@H](C)/C=C(\\C)[C@H](OC(N)=O)[C@@H](OC)/C=C\\C=C(/C)C(=O)NC(=C(SC)C1=O)C2=O"
reported_measurement = 3.9

[[record]]
structure = "COC[C@]1(CCC(C)=C(C)C)Nc2ccc(C(=O)NC3=C(O)CCC3=O)cc2C[C@@H]1Cl"
reported_measurement = 0.07

[[record]]
structure = "CO[C@H]1C[C@H](C)Cc2cc(O)cc(c2)NC(=O)/C(C)=C/CC[C@H](OC)[C@@H](OC(N)=O)/C(C)=C/[C@H](C)[C@H]1O"
reported_measurement = 28

[[record]]
structure = "COC1=C2C[C@@H](C)C[C@H](OC)[C@H](O)[C@@H](C)/C=C(\\C)[C@H](OC(N)=O)[C@@H](OC)/C=C\\C=C(/C)C(=O)NC(=CC1=O)C2=O"
reported_measurement = 2.2


Now for another entry.
What IC50 value was documented for this molecule, `CO[C@H]1/C=C\C=C(/C)C(=O)NC2=CC(=O)C(O)=C(C[C@@H](C)C[C@H](OC)[C@H](O)[C@@H](C)/C=C(\C)[C@@H]1OC(N)=O)C2=O` ?
25

Data credit: ChEMBL document CHEMBL4808199
